Where do these numbers come from? They come from PubChem BioAssay (Tox21).

experiment: qHTS RealTime-Glo MT Cell Viability Assay in HEK293 cells - 8 hour (AID 1224887); also: nearly all actives have a fitted effect of over 50% in size; also: potency is read from the fitted curve at half-maximal effect
measurement setup: RealTime-Glo luminescence; series mostly up to 76.8 µM
Records with an inconclusive call do not appear. The source made the active and inactive calls. Calls follow the shape of the dose curve; as a rule, active = well fitted cell-killing curve with a large enough effect in the repeat runs; inconclusive = weak or mixed curves, or effect the other way; inactive = flat fitted curve, though single readings scatter.
value kind: Potency

| test smiles | value kind | value measured |
| --- | --- | --- |
| O=[N+]([O-])c1cc([N+](=O)[O-])c2ccc(S(=O)(=O)O)cc2c1O | Potency | inactive |
| CC(C)(C)c1ccc(C(=O)O)cc1 | Potency | inactive |
| CCCCCCCCCOC(=O)c1ccc(O)cc1 | Potency | 38.3 µM (active) |
| NC(=O)C1(N2CCCCC2)CCN(CCCN2c3ccccc3CCc3ccc(Cl)cc32)CC1 | Potency | 23.9 µM (active) |
| O=[N+]([O-])c1cc(Cl)c(Cl)c(Cl)c1Cl | Potency | inactive |
| O=C1CCCCCN1SSN1CCCCCC1=O | Potency | inactive |
| CCc1oc2ccccc2c1C(=O)c1cc(Br)c(O)c(Br)c1 | Potency | inactive |
| O=C(Oc1ccccc1)c1ccccc1C(=O)Oc1ccccc1 | Potency | inactive |
| CCc1cc(Cc2cc(CC)cc(C(C)(C)C)c2O)c(O)c(C(C)(C)C)c1 | Potency | 13.8 µM (active) |
| C/C=C(\C)C(=O)OCc1ccccc1 | Potency | inactive |
| O=C(O)c1cc(O)c2c(c1)C(=O)c1cccc(O)c1C2=O | Potency | inactive |
| Cc1cc(O)c(Cl)c(C)c1Cl | Potency | inactive |
| O=C1c2c(O)ccc(Nc3ccc(CCO)cc3)c2C(=O)c2c([N+](=O)[O-])ccc(O)c21 | Potency | 43.6 µM (active) |
| CNc1ccc(O)cc1 | Potency | 15.5 µM (active) |
| CC[C@H](c1ccc(O)cc1)[C@@H](CC)c1ccc(O)cc1 | Potency | inactive |
| O=c1cc(-c2ccc(O)cc2)oc2cc(O)cc(O)c12 | Potency | inactive |
